FYI, the data here is from ChEMBL document CHEMBL2074016.

molecular target: ATP-dependent translocase ABCB1 (P-glycoprotein) (Homo sapiens, UniProt P08183); test: TP_TRANSPORTER: ATP hydrolysis in membrane fraction from High Five (BTI-TN5B1-4) cells; format: functional, cell membranes, BTI-TN-5B1-4; conditions: membrane fraction from High Five (BTI-TN5B1-4) cells
Sequence (P08183 whole entry): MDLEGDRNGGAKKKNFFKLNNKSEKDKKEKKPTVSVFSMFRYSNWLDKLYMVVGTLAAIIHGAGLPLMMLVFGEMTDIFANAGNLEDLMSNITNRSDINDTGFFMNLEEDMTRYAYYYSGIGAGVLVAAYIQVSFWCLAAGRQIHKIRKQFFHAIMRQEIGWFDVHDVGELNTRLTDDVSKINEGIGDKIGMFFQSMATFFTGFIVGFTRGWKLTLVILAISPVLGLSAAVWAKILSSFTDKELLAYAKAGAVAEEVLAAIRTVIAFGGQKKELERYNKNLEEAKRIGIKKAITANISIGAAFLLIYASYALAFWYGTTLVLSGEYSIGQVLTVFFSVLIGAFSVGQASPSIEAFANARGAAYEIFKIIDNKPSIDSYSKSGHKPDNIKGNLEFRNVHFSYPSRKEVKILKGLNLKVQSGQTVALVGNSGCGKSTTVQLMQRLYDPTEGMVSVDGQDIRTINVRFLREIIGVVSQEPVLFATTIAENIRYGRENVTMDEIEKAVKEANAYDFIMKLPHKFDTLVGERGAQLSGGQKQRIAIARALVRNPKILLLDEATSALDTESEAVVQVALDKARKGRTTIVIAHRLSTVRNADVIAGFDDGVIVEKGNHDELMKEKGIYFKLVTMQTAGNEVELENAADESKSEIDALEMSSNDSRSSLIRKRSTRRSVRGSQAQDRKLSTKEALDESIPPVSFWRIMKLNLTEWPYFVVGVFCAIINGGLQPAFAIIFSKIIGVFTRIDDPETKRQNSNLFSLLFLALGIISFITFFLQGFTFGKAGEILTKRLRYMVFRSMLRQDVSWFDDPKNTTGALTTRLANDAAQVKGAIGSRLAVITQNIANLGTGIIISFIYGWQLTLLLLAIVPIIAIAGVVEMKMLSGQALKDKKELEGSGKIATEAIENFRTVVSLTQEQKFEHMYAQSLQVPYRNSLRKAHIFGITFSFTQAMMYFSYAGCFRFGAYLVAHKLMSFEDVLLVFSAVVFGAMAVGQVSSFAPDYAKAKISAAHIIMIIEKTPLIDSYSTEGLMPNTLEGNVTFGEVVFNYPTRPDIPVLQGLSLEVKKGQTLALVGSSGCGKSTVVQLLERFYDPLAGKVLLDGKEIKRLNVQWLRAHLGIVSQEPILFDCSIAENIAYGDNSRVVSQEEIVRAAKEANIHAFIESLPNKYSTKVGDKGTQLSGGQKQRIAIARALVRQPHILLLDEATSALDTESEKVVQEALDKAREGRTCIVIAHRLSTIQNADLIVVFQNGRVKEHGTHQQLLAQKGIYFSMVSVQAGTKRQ
measuredEndpoint: Km (µM)
Value expressed in µM; do not type the unit.

Give Km for CN(C)C(=O)C(CCN1CCC(O)(c2ccc(Cl)cc2)CC1)(c1ccccc1)c1ccccc1 [LOPERAMIDE] 13.8
